Data provenance is ChEMBL document CHEMBL5113480.

ASSAYED TARGET: Cytochrome P450 1A2 (Homo sapiens)
Sequence (P05177 whole entry): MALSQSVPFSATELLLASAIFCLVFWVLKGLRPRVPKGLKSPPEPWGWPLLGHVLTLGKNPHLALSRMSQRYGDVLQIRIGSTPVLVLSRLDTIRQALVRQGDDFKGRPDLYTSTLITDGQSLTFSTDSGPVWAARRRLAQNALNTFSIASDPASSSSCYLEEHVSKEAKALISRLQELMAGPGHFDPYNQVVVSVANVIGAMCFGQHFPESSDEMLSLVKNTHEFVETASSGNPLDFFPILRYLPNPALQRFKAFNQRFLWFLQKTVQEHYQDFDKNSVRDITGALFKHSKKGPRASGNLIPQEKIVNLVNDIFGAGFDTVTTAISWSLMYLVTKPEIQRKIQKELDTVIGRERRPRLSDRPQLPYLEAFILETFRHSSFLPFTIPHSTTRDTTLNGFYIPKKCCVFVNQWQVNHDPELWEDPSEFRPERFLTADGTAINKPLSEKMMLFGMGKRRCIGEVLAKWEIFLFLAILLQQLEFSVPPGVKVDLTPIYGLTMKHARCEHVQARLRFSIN
ASSAY READOUT: IC50

COMPOUND | ASSAY VALUE
Cc1cccc(-c2cc(C#N)cc(Oc3c(C(F)(F)F)ccn(Cc4n[nH]c(=O)n4C)c3=O)c2)c1 | > 50 µM

----------
ASSAYED TARGET: Human immunodeficiency virus type 1 reverse transcriptase (Human immunodeficiency virus 1, UniProt Q72547)
The following compounds are listed with their measured IC50 values.
ASSAY READOUT: IC50

COMPOUND | ASSAY READOUT | ASSAY VALUE
Cc1cc(Oc2c(C(F)(F)F)ccn(Cc3n[nH]c(=O)n3C)c2=O)ccc1-c1ccc(C#N)cc1 | IC50 | 4.2 µM
Cn1c(Cn2ccc(C(F)(F)F)c(Oc3c(F)cc(-c4cccc(C#N)c4)cc3F)c2=O)n[nH]c1=O | IC50 | 2.57 µM
Cc1cc(-c2ccc(F)cc2)ccc1Oc1c(C(F)(F)F)ccn(Cc2n[nH]c(=O)n2C)c1=O | IC50 | 5.4 µM
Cn1c(Cn2ccc(C(F)(F)F)c(Oc3cc(C#N)cc(-c4ccc(F)cc4)c3)c2=O)n[nH]c1=O | IC50 | 0.11 µM
Cn1c(Cn2ccc(C(F)(F)F)c(Oc3ccc(-c4ccc(C#N)cc4)cc3Cl)c2=O)n[nH]c1=O | IC50 | 6.73 µM
Cc1cccc(-c2ccc(Oc3c(C(F)(F)F)ccn(Cc4n[nH]c(=O)n4C)c3=O)cc2C)c1 | IC50 | 6.54 µM
Cn1c(Cn2ccc(C(F)(F)F)c(Oc3ccc(-c4ccc(F)c(C#N)c4)cc3Cl)c2=O)n[nH]c1=O | IC50 | 10.3 µM
Cc1cccc(-c2cc(C#N)cc(Oc3c(C(F)(F)F)ccn(Cc4n[nH]c(=O)n4C)c3=O)c2)c1 | IC50 | 0.041 µM
Cn1c(Cn2ccc(C(F)(F)F)c(Oc3cc(C#N)cc(-c4cc(F)cc(C#N)c4)c3)c2=O)n[nH]c1=O | IC50 | 0.17 µM
Cn1c(Cn2ccc(C(F)(F)F)c(Oc3ccc(-c4cc(F)cc(C#N)c4)cc3)c2=O)n[nH]c1=O | IC50 | 8.1 µM
Cn1c(Cn2ccc(C(F)(F)F)c(Oc3cc(Cl)cc(C#N)c3)c2=O)n[nH]c1=O | IC50 | 0.044 µM
Cn1c(Cn2ccc(C(F)(F)F)c(Oc3ccc(-c4ccc(C#N)cc4)cc3)c2=O)n[nH]c1=O | IC50 | 15.9 µM
Cc1cc(-c2cccc(F)c2)ccc1Oc1c(C(F)(F)F)ccn(Cc2n[nH]c(=O)n2C)c1=O | IC50 | 5.44 µM
Cc1ccc(-c2cc(C#N)cc(Oc3c(C(F)(F)F)ccn(Cc4n[nH]c(=O)n4C)c3=O)c2)cc1 | IC50 | 1.53 µM
Cn1c(Cn2ccc(C(F)(F)F)c(Oc3cc(C#N)cc(-c4ccc(F)c(C#N)c4)c3)c2=O)n[nH]c1=O | IC50 | 0.29 µM
Cn1c(Cn2ccc(C(F)(F)F)c(Oc3ccc(-c4cc(F)cc(C#N)c4)cc3F)c2=O)n[nH]c1=O | IC50 | 5.98 µM
Cc1cc(-c2ccc(F)c(C#N)c2)ccc1Oc1c(C(F)(F)F)ccn(Cc2n[nH]c(=O)n2C)c1=O | IC50 | 5.49 µM

----------
TEST PROTOCOL: Cmax in Sprague-Dawley rat at 5 mg/kg,po
Assay type: ADME, organism-based
Set-up: dose 5 mg/kg, route po
CONDITIONS USED: in vivo

COMPOUND | UOM | Cmax
Cc1cccc(-c2cc(C#N)cc(Oc3c(C(F)(F)F)ccn(Cc4n[nH]c(=O)n4C)c3=O)c2)c1 | ng/mL | 583
